- System: ryegrass, Italian (italian ryegrass, Lolium multiflorum)
- test.details: Test A preemergence soil spray, visual injury rating 0-100
- Type: in vivo
- experimental.setup: 62 g ai/ha, 10 days, 0 = no effect, 100 = complete control
Measured Ryegrass, Italian plant response rating (0-100), listed per entry.
Response field accepts a number only; no unit should be typed.

C=CC1(C(=O)NC2CC(C(=O)OC)C2)CN(c2cc(F)cc(F)c2)C(=O)O1 (stereo not shown) [Compound 173] = 90
C=CC1(C(=O)NC2CC(C(=O)OC)C2)CN(c2cc(F)cc(F)c2)C(=O)O1 (stereo not shown) [Compound 174] = 0
COC(=O)C1CC(NC(=O)C2(C)CN(c3cc(F)cc(F)c3)C(=O)O2)C1 (stereo not shown) [Compound 118] = 80

// next entry
What Ryegrass, Italian plant response rating (0-100) value was documented for this compound, CC1(C(=O)NC2CC=C(C(=O)NS(=O)(=O)C3CC3)C2)CN(c2cc(F)cc(F)c2)C(=O)O1 (racemic) [Compound 90] ?
0

====

- Test system: palmer (palmer amaranth, palmer pigweed, Amaranthus palmeri)
- test.details: Test A preemergence soil spray, visual injury rating 0-100
- Type: in vivo
- experimental.setup: 125 g ai/ha, 10 days, 0 = no effect, 100 = complete control
Measured Amaranth, Palmer plant response rating (0 to 100 scale), listed per entry.
Response field accepts a number only; no unit should be typed.

Solved entries (count: 6):
CONC(=O)C1CC(NC(=O)C2(C)CN(c3cc(F)cc(F)c3)C(=O)O2)CO1 (centres unmarked) [Compound 39] = 0
COC(=O)C1CCC(NC(=O)C2(C)CN(c3cc(F)cc(F)c3)C(=O)O2)C1 (centres unmarked) = 40
CC1(C(=O)NC2C=CC(C(=O)OCC(F)(F)F)C2)CN(c2cc(F)cc(F)c2)C(=O)O1 (centres unmarked) = 70
CC1(C(=O)NC2C=CC(C(=O)OCC#N)C2)CN(c2cc(F)cc(F)c2)C(=O)O1 (centres unmarked) = 100
CCOC(=O)C1=CCC(NC(=O)C2(C)CN(c3cc(F)cc(F)c3)C(=O)O2)C1 (centres unmarked) = 100
CONC(=O)C1CC(NC(=O)C2(C)CN(c3cc(F)cc(F)c3)C(=O)O2)CO1 (centres unmarked) [Compound 41] = 0

What Amaranth, Palmer plant response rating (0 to 100 scale) value was documented for this molecule, CSCCOC(=O)C1=CCC(NC(=O)C2(C)CN(c3cc(F)cc(F)c3)C(=O)O2)C1 (centres unmarked) ?
90

// same read-out, input: CC1(C(=O)NC2C=CC(C(=O)OC3CCCC3)C2)CN(c2cc(F)cc(F)c2)C(=O)O1 (centres unmarked)
70

====

- Test system: palmer (palmer amaranth, palmer pigweed, Amaranthus palmeri)
- test.details: Test A postemergence application, visual injury rating 0-100
- Format: in vivo
- experimental.setup: Postemergence, 500 g ai/ha, 10 days; 0 is no effect, 100 is complete control
- Description: […]
Measured Amaranth, Palmer / Pigweed, Palmer plant response rating (0 to 100 scale), listed per entry.
Response field accepts a number only; no unit should be typed.

Solved entries (count: 3):
CC(C)OC(=O)C1C=CC(NC(=O)C2(C)CN(c3cc(Cl)cc(Cl)c3)C(=O)O2)C1 (stereo not shown) [Compound 43] = 100
CC1(C(=O)NC2C=CC(C(=O)NS(C)(=O)=O)C2)CN(c2cc(F)cc(F)c2)C(=O)O1 (stereo not shown) [Compound 30] = 90
CC1(C(=O)NC2C=CC(C(=O)OCCS(C)(=O)=O)C2)CN(c2cc(Cl)cc(Cl)c2)C(=O)O1 (stereo not shown) [Compound 46] = 90

// next entry
What Amaranth, Palmer / Pigweed, Palmer plant response rating (0 to 100 scale) value was documented for this compound, CSCCOC(=O)C1C=CC(NC(=O)C2(C)CN(c3cc(Cl)cc(Cl)c3)C(=O)O2)C1 (stereo not shown) [Compound 45] ?
100
